Assay: Cytotoxic concentration required to cause microscopically detectable alteration of normal cell morphology of HeLa cells
Type: cell-based
Conditions: human, read-out: CC50
Observed property: MCC

INSERT INTO assay_data (compound, observed_property, obs_value) VALUES
  ('Cc1cccc2ncc(CSCC(O)CO)n12 (stereo not drawn)', 'MCC', '> 100 µg/mL'),
  ('COC(=O)c1nc2ccccn2c1CSCCO', 'MCC', '> 200 µg/mL'),
  ('CCOC(=O)CSCc1cnc2cc(C)ccn12', 'MCC', '> 100 µg/mL');

* * *

Test: Cytotoxic concentration required to cause microscopically detectable alteration of normal cell morphology of Vero cells
Format: cell-based
Details: chlorocebus sabaeus, read-out: CC50
Observed property: MCC (µg/mL)

INSERT INTO measurements (molecule, observed_property, unit_label, value_relation_sign, obs_value) VALUES
  ('OCCSCc1cnc2ccccn12', 'MCC', 'µg/mL', '=', 400),
  ('O=c1[nH]c(=O)n([C@H]2C[C@H](O)[C@@H](CO)O2)cc1/C=C/Br [BRIVUDINE]', 'MCC', 'µg/mL', '>', 400),
  ('Cc1cccc2ncc(CSCCO)n12', 'MCC', 'µg/mL', '=', 200),
  ('Cc1cccc2ncc(CSCC(C)O)n12 (stereo unspecified)', 'MCC', 'µg/mL', '>', 400),
  ('CCSCc1cnc2c(C)cccn12', 'MCC', 'µg/mL', '=', 400),
  ('Cc1cccn2c(CSCc3ccccc3)cnc12', 'MCC', 'µg/mL', '=', 100);
